- Target or system: RT DNA polymerase activity (Human immunodeficiency virus type 1 group M subtype B)
- Assay text: RT RNA-dependent DNA polymerase activity
- Format: biochemical, HIV-1
- Test settings: read-out: In vitro IC50 RT DNA pol; pH 7.4, 1 mM Mg2+
Result type: IC50 (nM)
Write it as a number; the unit nM goes unstated.

Ask | Need IC50 of "O=c1cc(CN2CCN(C(c3ccccc3)c3ccccc3)CC2)c2ccc(O)c(O)c2o1" , thanks.
Reply | 2200

Ask | Need IC50 of "O=c1cc(CN2CCN(c3cccc(Cl)c3)CC2)c2ccc(O)c(O)c2o1" , thanks.
Reply | 2500
